# System: Fibroblast
# test: Multiplex assay against human fibroblast
# Type: toxicity, cell-based
# protocol conditions: 48 h, 10 µM, compound concentration 10 uM, replicate 1
Consider the following molecules and their measured Population Fragmented Nuclei (%) readings.
Lab book: enter the figure in %, no units written.

[
  {
    "molecule": "CCNC1(C(N)=O)CCN(c2ncnc3c2nc(-c2ccccc2Cl)n3-c2ccc(Cl)cc2)CC1",
    "unit annotation": "%",
    "meas value": 30
  },
  {
    "molecule": "COc1cc(C(=O)N(CCCc2ccccc2)Cc2ccc(CC(=O)O)cc2)cc(OC)c1C",
    "unit annotation": "%",
    "meas value": 25
  },
  {
    "molecule": "CN1CCN(c2nc3cc(C(F)(F)F)ccc3n3cccc23)CC1.O=C(O)/C=C\\C(=O)O.O=C(O)/C=C\\C(=O)O",
    "unit annotation": "%",
    "meas value": 22
  }
]

**Q:** Given O=C(O)Cc1ccccc1Nc1c(Cl)cccc1Cl , state its recorded Population Fragmented Nuclei (%).
**A:** 22

**Q:** Given C[C@H](NC(=O)c1c(C(F)F)nn(C)c1Oc1cccc(C(F)(F)F)c1)c1ccc(C(=O)O)cc1 , state its recorded Population Fragmented Nuclei (%).
**A:** 20

**Q:** Given N#Cc1c(N)nc(SCc2csc(-c3ccc(Cl)cc3)n2)c(C#N)c1-c1ccc(OCCO)cc1 , state its recorded Population Fragmented Nuclei (%).
**A:** 32

**Q:** Given Cl.Clc1ccc2nsnc2c1NC1=NCCN1 [TIZANIDINE HYDROCHLORIDE] , state its recorded Population Fragmented Nuclei (%).
**A:** 26

**Q:** Given CCCC(CCC)C(=O)O , state its recorded Population Fragmented Nuclei (%).
**A:** 30

**Q:** Given CCCn1c(=O)c2[nH]c(C3CCCC3)nc2n(CCC)c1=O , state its recorded Population Fragmented Nuclei (%).
**A:** 24

**Q:** Given CN(C)CCCc1cc(C(=O)Nc2ccc(-c3ccncc3)cc2)ccc1O.Cl.Cl , state its recorded Population Fragmented Nuclei (%).
**A:** 28

**Q:** Given CCCN1CCC[C@@H]2Cc3n[nH]cc3C[C@H]21.Cl [QUINPIROLE HYDROCHLORIDE] , state its recorded Population Fragmented Nuclei (%).
**A:** 23

**Q:** Given c1cc(OCCCN2CCCCC2)ccc1CN1CCCCC1 , state its recorded Population Fragmented Nuclei (%).
**A:** 19

**Q:** Given CSc1ccccc1N1CCN(CCCCCC(=O)NC2CCCc3ccccc32)CC1.Cl (centres undefined) , state its recorded Population Fragmented Nuclei (%).
**A:** 25
